Values were extracted from paper PMC9816194.

System: male C57BL/6 J mice
Test: Head-twitch response (HTR), magnetometer coil recording
Format: in vivo
Settings: 1 mg/kg IP, 30 min
What HTR Counts (Mean ± SEM) was measured for each of the following?
Answers are plain numbers.

Provide each entry's HTR Counts (Mean ± SEM) from the list below.
1. CCSc1cc(OC)c(CCN)cc1OC.Cl
2. COc1cccc(CSc2cc(OC)c(CCN)cc2OC)c1.Cl
3. C=C(C)CSc1cc(OC)c(CCN)cc1OC.Cl

[A]
1. 65.2
2. 5.0
3. 26.2

List the reported HTR Counts (Mean ± SEM) of each compound below.
1. CCCCSc1cc(OC)c(CCN)cc1OC.Cl
2. COc1cc(SCCCF)c(OC)cc1CCN.Cl
3. CCCSc1cc(OC)c(CCN)cc1OC.Cl
4. COc1cc(SCCF)c(OC)cc1CCN.Cl

[A]
[19.8, 25.4, 70.2, 19.8]

[Q] Consider the compound shown here: COc1cc(SC)c(OC)cc1CC(C)N.Cl (centres unmarked) What is its recorded HTR Counts (Mean ± SEM)?
[A] 72.0
